Target: T1, human insulin-like growth factor-I (IGF-I) (human, UniProt P05019 49-118)
T1 construct: also called IGF1; IGF-1
Test: Biacore high-resolution, mAb captured, IGF-I injected over a range of concentrations
Catalogue of Kd values
Reply numerically in nM, unit not repeated.

Sample mAb 7.159.2 (antibody, V domains shown, Fully human XenoMouse hybridoma mAb, lambda light chain (V1-19/JL2); Sister clones 7.159.1 and 7.159.2 are said to be identical; also called 7.159.1; 7_159_1) VH: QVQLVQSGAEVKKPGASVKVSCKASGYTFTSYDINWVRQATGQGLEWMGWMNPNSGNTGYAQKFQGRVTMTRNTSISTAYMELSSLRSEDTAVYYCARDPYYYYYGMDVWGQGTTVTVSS VL: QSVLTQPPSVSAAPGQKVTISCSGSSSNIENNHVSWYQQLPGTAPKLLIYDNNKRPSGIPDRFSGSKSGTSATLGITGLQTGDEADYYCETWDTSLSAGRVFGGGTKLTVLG — what was its Kd? 0.294

I would be grateful if you could share the reported Kd for mAb 7.234.2 (antibody, V domains shown, Kappa light chain (L5/JK3); also called 7.234.1; 7_234_1) VH: QLQLQESGPGLVKPSETLSLTCTVSGGSINSSSNYWGWIRQPPGKGLAWIGGIYYSGSTYYNPSLRSRVTMSVDTSKNQFSLKLSSVTAADTAVYYCARQRGHSSGWWYFDLWGRGTLVTVSS VL: DIQMTQSPSSVSASVGDRVTITCRASRGISSWLAWYQQRPGKAPKLLIYTASSLQSGVPSRFSGSGSGTDFTLTISSLQPEDFATYYCQQANSFPFTFGPGTKVDIKR . 3.76

Data request, read-out Kd, for mAb 7.251.3 (antibody, V domains shown, Fully human XenoMouse hybridoma mAb, lambda light chain (V1-13/JL2); also called ATCC PTA-7422) VH: QVQLQESGPGLVKPSETLSLTCTVSGGSISSYYWSWIRQPPGKGLEWIGYFFYSGYTNYNPSLKSRVTISVDTSKNQFSLKLSSVTAADTAVYYCACITGTTKGGMDVWGQGTTVTVSS VL: QSVLTQPPSVSGAPGQRVTISCTGSSSNIGAGYDVHWYQQLPGTAPKLLIYGNNNRPSGVPDRFSGSKSGTSASLAITGLQADDEADYYCQSFDSSLSGSVFGGGTKLTVLG 0.452

Query: Kd; subject: mAb 7.34.1 (antibody, V domains shown, Fully human XenoMouse hybridoma mAb, lambda light chain (V1-13/JL2); also called ATCC PTA-7423) VH: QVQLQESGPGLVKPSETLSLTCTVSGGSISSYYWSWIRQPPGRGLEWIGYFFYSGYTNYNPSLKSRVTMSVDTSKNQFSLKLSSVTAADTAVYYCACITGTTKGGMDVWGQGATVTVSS VL: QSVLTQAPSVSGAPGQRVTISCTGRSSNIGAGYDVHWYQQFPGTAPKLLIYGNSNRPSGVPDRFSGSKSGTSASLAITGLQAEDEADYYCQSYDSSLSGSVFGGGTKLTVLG 0.436

Provenance of the data: patent US20070196376A1
